System: giant foxtail (Setaria faberii)
Experiment: Test A preemergence
Assay type: in vivo
Conditions: Setaria faberi, pre-emergence, 240 h, 125 g ai/ha, Preemergence, visual injury rating after approximately 10 d; read-out: Foxtail, Giant plant response rating (0 to 100 scale, 0 is no effect, 100 is complete control)
pest or weed control at 125 g/ha reference

# compound, systemUnderTest, pest or weed control at 125 g/ha (%)
records = [
    ("CN1CC(c2ccccc2OC(F)(F)C(F)F)C(C(=O)Nc2cccc(F)c2F)C1=O (centres unmarked)", "giant foxtail (Setaria faberii)", 60),
    ("CC(C)COc1cccc([C@H]2CN(C)C(=O)[C@@H]2C(=O)Nc2ccccc2F)c1", "giant foxtail (Setaria faberii)", 90),
    ("O=C(Nc1ccccc1F)[C@H]1C(=S)NC[C@@H]1c1ccc(C(F)(F)F)cc1 (racemic)", "giant foxtail (Setaria faberii)", 60),
    ("CN1CC[C@H](c2ccc(OC(F)(F)F)cc2)[C@@H](C(=O)Nc2ccc(F)c(F)c2F)C1=O", "giant foxtail (Setaria faberii)", 70),
    ("Cc1ccc([C@H]2CNC(=O)[C@@H]2C(=O)Nc2ccccc2S(C)(=O)=O)cc1C", "giant foxtail (Setaria faberii)", 20),
    ("Cc1ccc([C@H]2CN(C)C(=O)[C@@H]2C(=O)Nc2ccccc2[S+](C)[O-])cc1Cl (single isomer, unassigned)", "giant foxtail (Setaria faberii)", 90),
    ("Cc1oncc1NC(=O)[C@H]1C(=O)N(C)C[C@@H]1c1cc(F)cc(F)c1", "giant foxtail (Setaria faberii)", 80),
    ("CN1CC[C@H](c2ccc(OC(F)(F)F)cc2)[C@@H](C(=O)Nc2cccc(Cl)c2F)C1=O", "giant foxtail (Setaria faberii)", 30),
    ("Cc1ccc([C@H]2CN(C)C(=O)[C@@H]2C(=O)Nc2cccc(F)c2F)cc1C", "giant foxtail (Setaria faberii)", 90),
    ("O=C(Nc1cccc(F)c1F)[C@H]1C(=O)N(O)CC[C@@H]1c1ccccc1", "giant foxtail (Setaria faberii)", 0),
    ("Cc1ccc([C@H]2CN(C)C(=O)[C@@H]2C(=O)Nc2cccc(F)c2C)cc1F", "giant foxtail (Setaria faberii)", 90),
]

---

Below, each entry is listed with its recorded Plant response rating, Ragweed.
System: ragweed (common ragweed, Ambrosia elatior)
Assay: Test A preemergence
Format: in vivo
Details: 125 g ai/ha, preemergence; visual rating after approx. 10 d; 0 to 100 scale where 0 is no effect and 100 is complete control

# compound, Plant response rating, Ragweed
measured = [
    ("O=C1NCC(c2cccc(Br)c2)C1C(=O)Nc1ccc(F)cc1F (racemic) [Compound 687]", 0),
    ("O=C1NCC(c2cccc(OC(F)(F)C(F)F)c2)C1C(=O)Nc1cccc(F)c1F (racemic) [Compound 697]", 50),
    ("O=C(Nc1ccccc1F)C1C(=O)N(CC2CC2)CC1c1cccc(C(F)(F)F)c1 (stereo not shown) [Compound 682]", 0),
    ("CN1CC(c2ccc(C(C)(F)F)cc2)C(C(=O)Nc2cccc(F)c2F)C1=O (stereo not shown) [Compound 690]", 70),
]

---

In this section we review reported pest or weed control at 31 g/ha values for a set of compounds.
System: giant foxtail (Setaria faberii)
Assay: Test A postemergence
Type: in vivo
Settings: Setaria faberi, post-emergence, 240 h, Postemergence, 31 g ai/ha; visual injury after approx. 10 d; 0 to 100 scale, 0 no effect, 100 complete control; read-out: Plant response rating, Foxtail, Giant

# compound, unit, pest or weed control at 31 g/ha
measured = [
    ("CC(C)=CC1CNC(=O)C1C(=O)Nc1ccccc1F (stereo not shown) [Compound 1011]", "%", 0),
    ("CSc1ccccc1NC(=O)[C@H]1C(=O)N(C)C[C@@H]1c1cc(C(F)F)cs1 [Compound 1088]", "%", 0),
    ("CN1CC[C@H](c2cccc(OC(F)(F)F)c2)[C@@H](C(=O)Nc2ccccc2C(F)(F)F)C1=O [Compound 806]", "%", 0),
    ("Cc1ccc([C@H]2CN(C)C(=O)[C@@H]2C(=O)Nc2cc(F)c(F)c(F)c2F)cc1 [Compound 1071]", "%", 20),
    ("CN1C[C@H](c2cccc(C(F)(F)F)c2)[C@@H](C(=O)Nc2ccccc2CCO)C1=O (racemic) [Compound 1162]", "%", 30),
    ("CN1CC[C@H](c2ccccc2C(F)(F)F)[C@@H](C(=O)Nc2ccccc2C(F)(F)F)C1=O [Compound 1008]", "%", 0),
    ("CN1CC[C@H](c2ccc3c(c2)OC(F)(F)O3)[C@@H](C(=O)Nc2cccc(F)c2F)C1=O [Compound 812]", "%", 70),
    ("CSc1ccccc1NC(=O)[C@H]1C(=O)N(C)C[C@@H]1c1ccc(C)cc1 [Compound 1187]", "%", 40),
    ("CN1C[C@H](c2csc3c2CCCC3)[C@@H](C(=O)Nc2ccccc2S(C)(=O)=O)C1=O [Compound 1080]", "%", 0),
    ("CN1C[C@H](c2ccc(F)c(Oc3ccccc3)c2)[C@@H](C(=O)Nc2ccccc2F)C1=O [Compound 1141]", "%", 60),
]

Where these numbers come from: patent US12077503B2
